For each of the compounds below, state its double positive events.
# procedureSummary: reduced mouse 2C T cell binding to pMHC/ICAM-1 vesicles – MLPCN validation set, flow cytometry, LFA-1/ICAM-1 modulator project, pilot screen (AID 2523)
# conditionSet: 2C mouse CD8+ T cells, at 7 µM, stronger effect = lower value; measured here: CD8+/vesicle+ event percentage
Just the number in %, nothing appended.

Data request: Which double positive events value is on record for O=C(O)C1CSC(c2ccc3c(c2)OCO3)N1 (centres undefined) ?
Data returned: 61.8

Data request: Which double positive events value is on record for Cn1c(=O)c2nc3ccccc3nc2n(C)c1=O ?
Data returned: 61.5

Data request: Which double positive events value is on record for C[C@@H]1C[C@H](Nc2ccccc2)c2ccccc2N1C(=O)c1cccnc1 ?
Data returned: 59.5

Data request: Which double positive events value is on record for O=C(CN1C(=O)c2ccccc2C1=O)Nc1cccc([N+](=O)[O-])c1 ?
Data returned: 61.2

Data request: Which double positive events value is on record for COc1ccc(O)c(C(=O)/C=C/c2cc3ccccc3o2)c1 ?
Data returned: 59.6

Data request: Which double positive events value is on record for COc1ccccc1Oc1c(C)oc2c(CN3CCN(CCO)CC3)c(O)ccc2c1=O ?
Data returned: 58.7

Data request: Which double positive events value is on record for COc1cccc2c(=O)c3ccccc3oc12 ?
Data returned: 61.1

Data request: Which double positive events value is on record for CCOC(=O)C(Cc1cc(C(C)=O)ccc1OC(C)C)C(=O)OCC ?
Data returned: 58.5

Data request: Which double positive events value is on record for CC(C)CCNC(=O)[C@H](CC(C)C)NC(=O)[C@H]1O[C@@H]1C(=O)O ?
Data returned: 52.8

Data request: Which double positive events value is on record for CC(=O)[C@H]1CC[C@H]2[C@@H]3CCC4=CC(=O)CC[C@]4(C)[C@H]3[C@H](O)C[C@]12C ?
Data returned: 57.7

Data request: Which double positive events value is on record for CC(=O)OCC(=O)[C@@]1(O)CC[C@H]2[C@@H]3CCC4=CC(=O)CC[C@]4(C)[C@H]3[C@@H](O)C[C@@]21C ?
Data returned: 62.5

Data request: Which double positive events value is on record for CC(C)CCc1noc(CN2CCC(CCN3CCCC3=O)CC2)n1 ?
Data returned: 62.1

Data request: Which double positive events value is on record for CC(C)c1ccc(OCc2ccc(C(=O)O)o2)cc1 ?
Data returned: 87.7

Data request: Which double positive events value is on record for Cc1ccc(S(=O)(=O)n2ccnc2)cc1C ?
Data returned: 60.3
